System: SNB-75
protocol-summary: NCI tumour cell line growth inhibition, 48 h
Activity calls are given as the source filed them. No stated cut-off is given here; in the data, active = GI50 up to about 1.1 µM and inactive = higher.
quantity-kind: GI50

Quote GI50 reported for O=C1c2ccccc2C(=O)N1C/C=N/NS(=O)(=O)c1ccc(Cl)cc1 please.
66.1 µM (inactive)

Quote GI50 reported for O=S(=O)(O)Oc1cc2c(c(OS(=O)(=O)O)c1)C[C@H](OS(=O)(=O)O)[C@@H](c1ccc(OS(=O)(=O)O)c(OS(=O)(=O)O)c1)O2 please.
43.6 µM (inactive)

Quote GI50 reported for Cc1[nH]c2ccccc2c1C1Cc2ccccc2N1C(=O)/C=C/C=C/c1ccccc1 (stereo not given) please.
> 100 µM (inactive)

Quote GI50 reported for CCOC(=O)C(C(=O)c1ccccc1C(=O)OC)=P(c1ccccc1)(c1ccccc1)c1ccccc1 please.
> 10 µM (inactive)

Quote GI50 reported for COC(=O)[C@@](C)(COC(=O)C(C)(C)C)NC(=O)OC(C)(C)C please.
> 100 µM (inactive)

Quote GI50 reported for Cc1nc2c(=S)n(C)ncc2[nH]1 please.
> 100 µM (inactive)

Quote GI50 reported for COc1ccc2cc3nc(O)cc(O)c3cc2c1OC please.
> 100 µM (inactive)
